- run-description: self-splicing fitness, log relative to wild type (ln ratio); higher = more splicing; Tetrahymena group I intron in knt gene, E. coli kanamycin selection, DiMSum; sequences stand for … in CUCUCU…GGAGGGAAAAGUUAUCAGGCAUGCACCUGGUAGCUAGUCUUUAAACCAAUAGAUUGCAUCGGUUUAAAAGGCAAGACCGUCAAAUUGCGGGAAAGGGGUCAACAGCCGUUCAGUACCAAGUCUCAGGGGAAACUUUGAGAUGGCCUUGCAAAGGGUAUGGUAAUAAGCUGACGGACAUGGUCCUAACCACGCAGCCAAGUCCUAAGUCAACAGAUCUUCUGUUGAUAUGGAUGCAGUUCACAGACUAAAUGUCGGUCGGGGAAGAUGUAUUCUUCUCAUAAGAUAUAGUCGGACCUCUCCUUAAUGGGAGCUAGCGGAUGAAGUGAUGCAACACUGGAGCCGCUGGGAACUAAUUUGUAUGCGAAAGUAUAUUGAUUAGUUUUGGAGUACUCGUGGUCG;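 note: selection with 25 µg/mL kanamycin versus none on LB agar overnight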
- condition-label: 30 °C
Classes are defined on self-splicing fitness (ln) with ranges lo: < -2; med: ≥ -2 and < -0.9; hi: ≥ -0.9

GCUAAGCAAUAUUACGCCUG
hi

# ---- query sequence ----
Data request: # bin label for "CCCUAGCAAUAUUACGUCUG"
Data returned: lo

---

- run-description: self-splicing fitness, log relative to wild type (ln ratio); higher = more splicing; Tetrahymena group I intron in knt gene, E. coli kanamycin selection, DiMSum; sequences stand for … in CUCUCU…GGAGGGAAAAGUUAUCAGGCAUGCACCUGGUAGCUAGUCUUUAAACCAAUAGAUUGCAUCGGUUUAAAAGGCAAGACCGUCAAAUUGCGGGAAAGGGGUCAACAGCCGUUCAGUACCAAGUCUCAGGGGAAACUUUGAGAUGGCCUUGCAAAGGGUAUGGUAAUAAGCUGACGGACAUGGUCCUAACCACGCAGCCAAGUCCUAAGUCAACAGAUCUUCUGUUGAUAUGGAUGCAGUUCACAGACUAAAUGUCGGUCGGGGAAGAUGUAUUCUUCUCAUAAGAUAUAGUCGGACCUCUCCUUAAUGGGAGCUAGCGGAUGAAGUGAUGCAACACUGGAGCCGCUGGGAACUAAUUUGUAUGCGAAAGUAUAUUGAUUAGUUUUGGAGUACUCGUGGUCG
- condition-label: 37 °C
Quick rule for you: self-splicing fitness (ln) at -2 or higher means Satisfied, lower means Not satisfied.

These recorded examples may help you get a feel for the data.
AUGGAGCAAUAUUACGACAU
Satisfied
GCGUAGCAAUAUUACGCAUU
Not satisfied
CACAAGCAAUAUUACGUCAU
Not satisfied
AUUCAGCAAUAUUACGAUCG
Satisfied

API: the following record is the query input.
Data request: In plain terms: is recorded self-splicing fitness (ln) at least -2 for "AAUUAGCAAUAUUACGAAAC" ?
Data returned: Satisfied

---

- run-description: self-splicing fitness, log relative to wild type (ln ratio); higher = more splicing; Tetrahymena group I intron in knt gene, E. coli kanamycin selection, DiMSum; sequences stand for … in CUCUCU…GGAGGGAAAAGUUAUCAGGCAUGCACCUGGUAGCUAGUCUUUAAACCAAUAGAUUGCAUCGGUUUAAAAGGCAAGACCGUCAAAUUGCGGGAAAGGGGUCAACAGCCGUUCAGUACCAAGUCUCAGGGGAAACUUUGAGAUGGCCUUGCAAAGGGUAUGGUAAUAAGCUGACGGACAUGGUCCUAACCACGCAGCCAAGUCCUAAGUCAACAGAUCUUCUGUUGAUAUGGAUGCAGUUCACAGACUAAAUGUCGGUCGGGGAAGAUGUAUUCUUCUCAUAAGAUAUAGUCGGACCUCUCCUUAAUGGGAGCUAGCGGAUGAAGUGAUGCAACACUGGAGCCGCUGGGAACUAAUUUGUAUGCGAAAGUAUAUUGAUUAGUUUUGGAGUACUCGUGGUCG
- condition-label: 30 °C
Binning scheme for self-splicing fitness (ln): low end: < -3; middle: ≥ -3 and < -2; high end: ≥ -2

Data request: // bin(item) where item = "GUCAAGCAAUAUUACGCUGU"
Data returned: low end

Data request: Repeat for the following sequence: "CAUGAGCAAUAUUACGGUGC"
Data returned: low end

Data request: Then "UAGUAGCAAUAUUACGUUAG" ?
Data returned: high end

Data request: Cool, now "GACAAGCAAUAUUACGCGGA"
Data returned: middle

Data request: Similarly, "GACAAGCAAUAUUACGCGCG" ?
Data returned: high end

Data request: Another: "UGAGAGCAAUAUUACGAGAC"
Data returned: low end

---

Items are presented alongside their recorded self-splicing fitness (ln).
- run-description: self-splicing fitness, log relative to wild type (ln ratio); higher = more splicing; Tetrahymena group I intron in knt gene, E. coli kanamycin selection, DiMSum; sequences stand for … in CUCUCU…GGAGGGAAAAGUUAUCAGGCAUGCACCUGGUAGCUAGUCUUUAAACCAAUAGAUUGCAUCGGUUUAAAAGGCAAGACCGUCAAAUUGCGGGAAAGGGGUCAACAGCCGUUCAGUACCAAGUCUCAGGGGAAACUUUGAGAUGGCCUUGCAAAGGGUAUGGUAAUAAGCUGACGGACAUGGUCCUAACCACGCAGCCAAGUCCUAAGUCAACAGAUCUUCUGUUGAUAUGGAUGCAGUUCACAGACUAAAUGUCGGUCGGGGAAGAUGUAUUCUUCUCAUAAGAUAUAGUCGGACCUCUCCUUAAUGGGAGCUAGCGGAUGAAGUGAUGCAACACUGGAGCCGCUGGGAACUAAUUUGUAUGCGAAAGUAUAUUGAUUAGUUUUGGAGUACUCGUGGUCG
- condition-label: 30 °C
Reply briefly: the number, and no unit.

Data request: Which self-splicing fitness (ln) reading was recorded for the sequence "CCUAAGCAAUAUUACGGCCU" ?
Data returned: -1.9

Data request: How about "AUUAAGCAAUAUUACGUUUC" ?
Data returned: -3.77

Data request: And then "GUACAGCAAUAUUACGGAUC" , what is it?
Data returned: -0.86

Data request: What about this sequence? "CAUAAGCAAUAUUACGAUGA"
Data returned: -2.58

Data request: Also check "UUUAAGCAAUAUUACGCGUG"
Data returned: -1.15

Data request: What would you report for "GAGUAGCAAUAUUACGGUAC" ?
Data returned: -2.69

Data request: # iterate: "AAGGAGCAAUAUUACGACUU"
Data returned: -1.12

Data request: Then what about the sequence "UAAUAGCAAUAUUACGCACU" ?
Data returned: -1.16

Data request: Also "CUUCAGCAAUAUUACGAUAA" ?
Data returned: -2.68

Data request: Continue with "AGUGAGCAAUAUUACGGUCA"
Data returned: -2.16

Data request: And the next one, "UCCAAGCAAUAUUACGAAGC" ?
Data returned: -2.87

Data request: And "AUGAAGCAAUAUUACGCUGU" ?
Data returned: -2.02

Data request: Also, "CGAAAGCAAUAUUACGAGUA" please.
Data returned: -3.07

Data request: Next up: "UGAUAGCAAUAUUACGGUCA"
Data returned: -0.441

Data request: Can you handle "UAGUAGCAAUAUUACGUUCA" next?
Data returned: -0.66

Data request: Would you mind doing "GAUUAGCAAUAUUACGGCAA" as well?
Data returned: -0.324

Data request: Now the sequence "GACCAGCAAUAUUACGGUUG"
Data returned: -0.661

Data request: Field entry: "AGUGAGCAAUAUUACGGGCG"
Data returned: -1.04

---

- run-description: self-splicing fitness, log relative to wild type (ln ratio); higher = more splicing; Tetrahymena group I intron in knt gene, E. coli kanamycin selection, DiMSum; sequences stand for … in CUCUCU…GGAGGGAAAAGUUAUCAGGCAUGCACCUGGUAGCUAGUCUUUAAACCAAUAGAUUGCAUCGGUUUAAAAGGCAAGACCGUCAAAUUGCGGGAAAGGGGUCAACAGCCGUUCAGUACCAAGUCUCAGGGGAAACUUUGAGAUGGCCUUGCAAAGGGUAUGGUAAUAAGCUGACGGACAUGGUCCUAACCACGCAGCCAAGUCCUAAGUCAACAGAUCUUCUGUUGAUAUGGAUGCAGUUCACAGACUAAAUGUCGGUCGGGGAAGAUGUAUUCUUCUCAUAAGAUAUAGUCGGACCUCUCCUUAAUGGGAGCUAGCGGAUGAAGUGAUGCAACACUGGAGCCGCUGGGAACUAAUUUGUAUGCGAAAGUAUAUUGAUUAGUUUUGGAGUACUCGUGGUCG
- condition-label: 30 °C
sequences and their reported self-splicing fitness (ln)
Number only, please.

Example results:
UACCAGCAAUAUUACGAGCC
-4.51
GCAUAGCAAUAUUACGAUAU
-1.9
GCUGAGCAAUAUUACGUUUA
-2.35
CCUUAGCAAUAUUACGGGUA
-2.65
AAGUAGCAAUAUUACGAUUC
-0.923

Data request: What value of self-splicing fitness (ln) has been recorded for this entry: "ACCAAGCAAUAUUACGGGAG"
Data returned: -3.22

Data request: Try this sequence next: "GCGUAGCAAUAUUACGACUU"
Data returned: -0.421

Values compiled from the supplement of paper PMC7877785.
